# Test system: U2OS
# methodNotes: Incucyte cell viability with U2OS; further: unitless GR value; below 1 slowed growth and below 0 cell loss
# Format: toxicity, cell-based
# settings: human, 0 h, 10 µM, compound concentration 10 uM, replicate number 1
measuredMetric: Growth Rate
One number for each entry.

Known Growth Rate results, listed for orientation:
COc1ccc(OC(=O)N(CC(=O)O)Cc2ccc(OCCc3nc(-c4ccccc4)oc3C)cc2)cc1; -0.96
Cl.NCC(O)c1ccc(O)cc1 (stereo not given) [OCTOPAMINE HYDROCHLORIDE]; 0.94

Provide Growth Rate values for the following items, in order.
1. O=C(NS(=O)(=O)N1CCC1)c1cc(C2CC2)c(OCC23CC4CC(CC(C4)C2)C3)cc1F
2. Cc1nc2ccc(Cl)cc2c(-c2ccccc2)c1CC(=O)O.Cl
3. Cc1cccc(F)c1C(=O)Nc1cnc(-c2cc3c(cc2Cl)OC(F)(F)O3)cn1

1. -0.5
2. 0.45
3. 0.13

---

Give measured Growth Rate for each item. Keep answers brief.
# System: Fibroblast
# methodNotes: Incucyte cell viability with human fibroblast; further: unitless GR value; below 1 slowed growth and below 0 cell loss
# Assay type: toxicity, cell-based
# settings: 12 h, 10 µM, compound concentration 10 uM, replicate number 2
Numbers only.

In the examples that follow, each entry is paired with its recorded Growth Rate.
O=C1NCCc2c(OCCCCN3CCCCC3)cccc21; 0.64
CCN1CCN(Cc2ccc(NC(=O)c3ccc(C)c(Oc4ccnc5[nH]ccc45)c3)cc2C(F)(F)F)CC1.Cl.Cl.Cl.O; 0.02
COc1cc(N2CCC(N3CCN(C)CC3)CC2)ccc1Nc1ncc(Cl)c(Nc2ccccc2S(=O)(=O)C(C)C)n1; -0.28
C=C1/C(=C\C=C2/CCC[C@]3(C)[C@@H]([C@H](C)CCCC(C)(C)O)CC[C@@H]23)C[C@@H](O)C[C@@H]1O; 0.64
NCC1CCC(CNc2nc(NCc3ccccc3OC(F)(F)F)ncc2[N+](=O)[O-])CC1 (configuration not stated); 0.57

# batch size: 3; output Growth Rate per entry
1. O=C(Nc1cccc(Nc2nccc(Nc3cccc(C(F)(F)F)c3)n2)c1)C1CC1
2. Cl.NC(=O)c1ccccc1Nc1nc(-c2ccc(N3CCOCC3)cc2)cc2ncccc12
3. COC(=O)c1cc2c(cn1)[nH]c1ccccc12

-0.73
-0.21
0.65

Hey, quick one: what's Growth Rate for each of these?
1. COc1ccc(CCCN2CCC(COC(c3ccccc3)c3ccccc3)CC2)cc1.Cl
2. CCCCCCCC/C=C\CCCCCCCC(=O)NCCO [OLEOYLETHANOLAMIDE]
3. CCN1C(=O)C(c2cccc(C(=O)O)c2)C(=O)N(c2ccccc2)c2cc(C(F)(F)F)ccc21 (configuration not stated)
4. c1ccc2c(-c3coc4cc(-c5ccc(N6CCNCC6)cc5)cnc34)ccnc2c1
5. CC(=O)N1CCN([C@H]2CCC[C@@H](NC(=O)c3cc4c(F)ccc(C)c4[nH]3)C2)CC1.O=C(O)C(F)(F)F
6. C[C@H](CCC(=O)O)[C@H]1CC[C@H]2[C@@H]3[C@H](O)C[C@@H]4C[C@H](O)CC[C@]4(C)[C@H]3C[C@H](O)[C@]12C
7. CC(C)(O)c1cn(-c2ccc(-c3cccc(S(C)(=O)=O)c3)cc2)c(C(C)(C)c2ccccc2Cl)n1
8. O=C1Nc2ccc(C(=O)c3ccco3)cc2C1=Cc1cc(Cl)c(O)c(Cl)c1 [GW406108X]

-0.74
0.96
0.41
0.61
0.88
0.56
0.55
1

Using Fibroblast as the test system, report measured Growth Rate of CCNc1ccc(-c2nn(-c3ccccc3C)c3c2C(C)Cc2nc(NC(=O)OC)sc2-3)cn1.O=C(O)C(F)(F)F (configuration not stated) .
-0.37

---

So I've got a bunch of compounds here, and I need their Growth Rate values.
# Tested on: U2OS
# methodNotes: Incucyte cell viability with U2OS; further: unitless GR value; below 1 slowed growth and below 0 cell loss
# Format: toxicity, cell-based
# settings: human, 12 h, 10 µM, compound concentration 10 uM, replicate number 1
Give bare numbers.

Reference set, count: 4
O=C(O)CCCc1cc2cc(Cl)ccc2n1S(=O)(=O)c1ccc2ncsc2c1 [LANIFIBRANOR]; 0.94
COc1cc(-c2cc3ncccc3c(OC[C@H]3CNC(=O)C3)n2)cc(OC)c1OC1CCOCC1.O=C(O)C(F)(F)F; 0.72
O=C(CNC(=O)c1ccc(-c2ccccc2)cc1)NC1CCCc2ccccc21 (stereo not given); 0.67
CC(C)c1cnn2c(NCc3ccccc3)cc(NCCCCCCN)nc12.Cl; 0.99

Okay, next one:
Identify measured Growth Rate corresponding to O=C1NCc2ccc3c(-c4cccc(Cl)c4)c[nH]c3c21
-0.32

---

# System: Fibroblast
# methodNotes: Incucyte cell viability with human fibroblast; further: unitless GR value; below 1 slowed growth and below 0 cell loss
# Type: toxicity, cell-based
# settings: 18 h, 10 µM, compound concentration 10 uM, replicate number 2
Kindly apply the following: fulfilled if Growth Rate is less than 0.6, not fulfilled in every other case.

# count of solved cases: 6
CCCNc1ccc2ncc(-c3ccncc3)n2n1; fulfilled
NC(=O)c1cc2c(-c3ccc(C(=O)NCc4ccnc(Cl)c4)s3)cccc2s1; fulfilled
Cc1ncsc1-c1ccc(CNC(=O)[C@@H]2C[C@@H](O)CN2C(=O)[C@@H](NC(=O)CCCCNC(=O)c2ccc(-c3ccc(N4CCN(C)CC4)c(NC(=O)c4c[nH]c(=O)cc4C(F)(F)F)c3)cc2)C(C)(C)C)cc1; not fulfilled
O=C1Nc2ccc(C(=O)c3ccco3)cc2C1=Cc1cc(Cl)c(O)c(Cl)c1 [GW406108X]; not fulfilled
CC(C)c1cc(Br)c(NC(=O)Nc2cccnc2)c(Br)c1; not fulfilled
Cc1cc([N+](=O)[O-])c(NS(=O)(=O)c2cccc(C(=O)O)c2)cc1-c1cccnc1; not fulfilled

Could you now consider this next compound?
Does this compound meet the criterion Growth Rate < 0.6? CC(=O)O[C@H]1C(=O)[C@@]2(C)[C@H]([C@H](OC(=O)c3ccccc3)[C@]3(O)C[C@H](OC(=O)[C@H](O)[C@@H](NC(=O)c4ccccc4)c4ccccc4)C(C)=C1C3(C)C)[C@]1(OC(C)=O)CO[C@@H]1C[C@@H]2O
fulfilled

---

# System: Fibroblast
# methodNotes: Incucyte cell viability with human fibroblast; further: unitless GR value; below 1 slowed growth and below 0 cell loss
# Assay type: toxicity, cell-based
# settings: 12 h, 10 µM, compound concentration 10 uM, replicate number 2
Would you mind labelling by Growth Rate? At or over -0.02 is t, under is f.

Worked examples follow.
CCN1C(=O)N(c2c(F)c(OC)cc(OC)c2F)Cc2cnc3[nH]c(CN4CCOCC4)cc3c21; t
COc1c(OCCCN2CCOCC2)ccc2c1N=C(NC(=O)c1cnc(N)nc1)N1CCN=C21; f
CC(C)(C)OC(=O)CN1C(=O)c2c(OCC(=O)O)cccc2Oc2ccc(C(F)(F)F)cc21; t
C[C@]12CC[C@@H]3c4ccc(O)cc4CC[C@H]3[C@@H]1C[C@H]1OC(=O)C[C@]12O; f
COCCN1CCN(CCn2ccc(Nc3ncc4c(n3)-c3c(nn(C)c3-c3ccccc3)C[C@H]4C)n2)CC1; t
Cc1cc(CN)cc(C)c1-c1ncn(C)c1-c1cncn1C.Cl; t

In the following, a different compound is considered.
Answer whether Growth Rate of O=C(Nc1ccc(C(O)(C(F)(F)F)C(F)(F)F)cc1)c1ccc(C(F)(F)F)cc1 is greater than or equal to -0.02.
t

---

# Test system: U2OS
# methodNotes: Incucyte cell viability with U2OS; further: unitless GR value; below 1 slowed growth and below 0 cell loss
# Format: toxicity, cell-based
# settings: human, 18 h, 10 µM, compound concentration 10 uM, replicate number 2
For each entry below, report its Growth Rate value.
Numbers only.

Below: 3 compounds and their reported Growth Rate.
CC(C)[C@H](C(=O)Nc1ccc(C(=O)NO)cc1)c1ccccc1 [AR-42]; 0.44
Cn1cc(-c2ccc(N(C(=O)NCc3ccccc3)[C@H]3CC[C@H](Nc4ccc(C#N)cn4)CC3)cc2)ccc1=O; 0.06
COc1cc([N+](=O)[O-])ccc1NC(=O)c1ccccc1O; 0.46

Return reported Growth Rate values for all items listed beneath this line.
1. Cn1c(Nc2c(Cl)cccc2Cl)nc2ccc3nc[nH]c(=O)c3c21
2. CN1CCC(C#N)(NC(=O)[C@@H](NC(=O)N2CCOCC2)C(C)(C)C)CC1
3. Cc1cc(C(C#N)c2ccc(Cl)cc2)c(Cl)cc1NC(=O)c1cc(I)cc(I)c1O (configuration not stated) [CLOSANTEL]
4. CC[C@@H](C(=O)OC)n1c(=O)c2ccccc2n(Cc2cn(C)c3cccc(C)c23)c1=O
5. O=C(Nc1ccnc(NC(=O)C2CC2)c1)c1c(Cl)cccc1Cl
6. c1ccc2c(c1)SCc1c-2[nH]c2ccccc12

[0.83, 1, 0.87, 0.96, 0.93, -0.49]

Hi! Can you tell me Growth Rate for each of these compounds?
1. COc1ccc(CC(=O)NC(N/C(=N/C#N)Nc2cccc3ncccc23)C(C)(C)C)cc1OC (configuration not stated)
2. Cc1nc2c([nH]1)c(=O)n(C)c(=O)n2Cc1ccco1 [FURAFYLLINE]
3. Cc1cc(OC2CCS(=O)(=O)CC2)cc(C)c1-c1cccc(COc2ccc(C(=O)O)c(F)c2)c1
4. COc1ccc(-c2cc3c(C)nc(N)nc3n([C@H]3CC[C@H](OCCO)CC3)c2=O)cn1 [PF-04691502]
5. CN(C)[C@H]1CCN(c2cc(C(F)(F)F)c(C#N)c(Nc3cccc(CCC(=O)O)c3)n2)C1.O=C(O)C(F)(F)F
6. C=CC(=O)Nc1ccc(C(=O)Nc2n[nH]c3c2CN(C(=O)N[C@H](CN(C)C)c2ccccc2)C3(C)C)cc1
7. COc1ccc(CSc2nnc(-c3ccc4ncsc4c3)o2)cc1C(F)(F)F
8. C[S+]([O-])c1ccc(-c2nc(-c3cccc(I)c3)c(-c3ccncc3)[nH]2)cc1 (configuration not stated)

1. 0.78
2. 1
3. 0.77
4. 0.83
5. 0.89
6. 0.97
7. -0.67
8. 0.75
